Target or system: Receptor-type tyrosine-protein kinase FLT3 (Homo sapiens, UniProt P36888, ITD)
Sequence (P36888 whole entry, looked up, change not shown): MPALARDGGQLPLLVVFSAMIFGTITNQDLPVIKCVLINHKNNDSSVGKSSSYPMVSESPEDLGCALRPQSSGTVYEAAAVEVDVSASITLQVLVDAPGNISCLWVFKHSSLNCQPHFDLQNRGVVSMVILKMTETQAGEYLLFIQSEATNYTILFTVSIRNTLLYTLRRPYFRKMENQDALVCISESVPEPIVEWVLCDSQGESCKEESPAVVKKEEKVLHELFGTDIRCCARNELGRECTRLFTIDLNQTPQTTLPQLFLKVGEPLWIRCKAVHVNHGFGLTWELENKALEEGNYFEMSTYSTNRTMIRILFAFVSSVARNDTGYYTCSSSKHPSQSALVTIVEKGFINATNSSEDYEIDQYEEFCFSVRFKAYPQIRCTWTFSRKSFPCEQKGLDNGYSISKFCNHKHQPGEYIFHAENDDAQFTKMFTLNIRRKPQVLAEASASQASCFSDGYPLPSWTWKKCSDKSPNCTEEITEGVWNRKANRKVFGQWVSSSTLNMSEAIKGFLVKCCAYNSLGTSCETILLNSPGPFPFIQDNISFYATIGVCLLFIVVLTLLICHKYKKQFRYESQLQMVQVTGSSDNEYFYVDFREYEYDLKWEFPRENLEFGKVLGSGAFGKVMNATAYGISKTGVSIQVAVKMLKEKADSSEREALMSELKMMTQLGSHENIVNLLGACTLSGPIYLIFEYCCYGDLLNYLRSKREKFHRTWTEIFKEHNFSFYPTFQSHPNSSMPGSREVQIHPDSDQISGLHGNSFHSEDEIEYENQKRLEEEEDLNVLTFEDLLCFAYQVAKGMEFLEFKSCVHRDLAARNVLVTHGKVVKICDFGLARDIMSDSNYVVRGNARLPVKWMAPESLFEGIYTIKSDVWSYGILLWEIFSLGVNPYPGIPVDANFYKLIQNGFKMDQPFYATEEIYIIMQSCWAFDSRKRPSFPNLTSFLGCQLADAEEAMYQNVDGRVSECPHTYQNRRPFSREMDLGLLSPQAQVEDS
Assay explanation: Inhibition of recombinant FLT3 ITD mutant (unknown origin) by RBC kinase assay
pIC50: −log10 of the molar value.
Give pIC50 for every item shown.

Query: Endpoint output: pIC50 of C=CS(=O)(=O)NC/C=C/c1cc(OC)cc(O)c1C(=O)OCc1ccc(F)cc1 . Value?
Result: ≤ 4.52

Query: Okay, and CCN(CC)C/C=C/C(=O)NC/C=C/c1cc(OC)cc(O)c1C(=O)O[C@@H](C)C(C)C ?
Result: ≤ 4.52

Query: Same read-out for C=CS(=O)(=O)NC/C=C/c1cc(OC)cc(O)c1C(=O)OCc1ccc(Br)cc1 ?
Result: ≤ 4.52

Query: Then this compound: COc1cc(O)c(C(=O)OCc2ccc(Br)cc2)c(/C=C/CN2C(=O)C=CC2=O)c1
Result: < 4.52

Query: Subsequent entry: C=CS(=O)(=O)NC/C=C/c1cc(OC)cc(O)c1C(=O)OCC(C)c1ccccc1 (stereo not given)
Result: ≤ 4.52
